meta.source: ChEMBL document CHEMBL1671709

# assay_protocol: Cytotoxicity against human A549 cells by XTT assay
# Assay type: cell-based

- line_notation: "O=C(Nc1ccccc1C(=O)Nc1ccccc1C(=O)O)c1ccccc1"
  CC50: "199 µM"

---

# assay_protocol: Cytotoxicity against human K562 cells assessed as viable cells after 24 hrs by MTT assay
# Assay type: cell-based
# measurement_parameters: read-out: Activity

- line_notation: "O=C(Nc1ccccc1C(=O)Nc1ccccc1C(=O)O)c1ccccc1"
  viability at 24 h, %: 100

---

# assay_protocol: Selectivity index, ratio of CC50 for human A549 cells to EC50 for Human adenovirus type 11p
# Assay type: toxicity, cell-based
# measurement_parameters: read-out: Selectivity Index
experimental_readout: selectivity ratio

- line_notation: "O=C(Nc1ccccc1C(=O)Nc1ccccc1C(=O)O)c1ccccc1"
  val: 68

---

# assay_protocol: Selectivity index, ratio of CC50 for human A549 cells to EC50 for Human adenovirus type 5
# Assay type: toxicity, cell-based
# measurement_parameters: read-out: Selectivity Index

- line_notation: "O=C(Nc1ccccc1C(=O)Nc1ccccc1C(=O)O)c1ccccc1"
  selectivity ratio: 54

---

# assay_protocol: Antiviral activity against Human adenovirus type 31 1315/63 infected in A549 cells assessed as inhibition of DNA replication by QPCR assay
# Type: functional, cell-based, Human adenovirus 31
# measurement_parameters: Human mastadenovirus A, 1315/63, A549

- line_notation: "O=C(Nc1ccccc1C(=O)Nc1ccccc1C(=O)O)c1ccccc1"
  EC50, µM: 3.9

---

# assay_protocol: Antiviral activity against Human adenovirus type 11p in human K562 cells harboring green fluorescent protein-expressing RCAd11pGFP vector assessed as inhibition of RCAd11pGFP genome expression
# Type: functional, cell-based, Human adenovirus 11p
# measurement_parameters: Human mastadenovirus B
pEC50: −log10 of the molar value.
experimental_readout: pEC50

- line_notation: "O=C(Nc1ccccc1C(=O)Nc1ccccc1C(=O)O)c1ccccc1"
  val: 4.54
